measurement-protocol: Selectivity index, ratio of Ki for ERalpha (unknown origin) to Ki for ERbeta (unknown origin)
measured-metric: Ratio Ki
API note: the answer field is a bare number with no unit suffix.

Below, 2 compounds whose answers are already recorded.
- compound: "COc1ccc(N(CC(F)(F)F)S(=O)(=O)C2CC3OC2C(c2ccc(OCCCCCC(=O)N[C@H](C(=O)N4C[C@H](O)C[C@H]4C(=O)NCc4ccc(-c5scnc5C)cc4)C(C)(C)C)cc2)=C3c2ccc(O)cc2)cc1 (stereo partly drawn)"
  Ratio Ki: 6.08
- compound: "O=C(COc1cccc2c1C(=O)N(C1CCC(=O)NC1=O)C2=O)NCCCCCCOc1ccc(N(CC(F)(F)F)S(=O)(=O)C2CC3OC2C(c2ccc(O)cc2)=C3c2ccc(O)cc2)cc1 (stereo not drawn)"
  Ratio Ki: 4.26

Q) # query: Ratio Ki of entry CCN(c1ccc(OCCCCCCC(=O)N[C@H](C(=O)N2C[C@H](O)C[C@H]2C(=O)NCc2ccc(-c3scnc3C)cc2)C(C)(C)C)cc1)S(=O)(=O)C1CC2OC1C(c1ccc(O)cc1)=C2c1ccc(O)cc1 (stereo partly drawn)
A) 6.13

* * *

measurement-protocol: Selectivity ratio of relative binding affinity for ERalpha (unknown origin) to relative binding affinity to ERbeta (unknown origin)
measured-metric: Selectivity ratio
API note: the answer field is a bare number with no unit suffix.

Below, 6 molecules whose answers are already recorded.
- molecule: "O=C(COc1cccc2c1C(=O)N(C1CCC(=O)NC1=O)C2=O)NCCCCOc1ccc(N(CC(F)(F)F)S(=O)(=O)C2CC3OC2C(c2ccc(O)cc2)=C3c2ccc(O)cc2)cc1 (stereo not given)"
  Selectivity ratio: 0.86
- molecule: "CCN(c1ccc(OCCCCCCC(=O)N[C@H](C(=O)N2C[C@H](O)C[C@H]2C(=O)N[C@@H](C)c2ccc(-c3scnc3C)cc2)C(C)(C)C)cc1)S(=O)(=O)C1CC2OC1C(c1ccc(O)cc1)=C2c1ccc(O)cc1 (stereo not given in full)"
  Selectivity ratio: 1.43
- molecule: "CCN(c1ccc(OCCCCCCCCC(=O)N[C@H](C(=O)N2C[C@H](O)C[C@H]2C(=O)NCc2ccc(-c3scnc3C)cc2)C(C)(C)C)cc1)S(=O)(=O)C1CC2OC1C(c1ccc(O)cc1)=C2c1ccc(O)cc1 (stereo not given in full)"
  Selectivity ratio: 0.57
- molecule: "COc1ccc(N(CC(F)(F)F)S(=O)(=O)C2CC3OC2C(c2ccc(OCCCCCC(=O)N[C@H](C(=O)N4C[C@H](O)C[C@H]4C(=O)NCc4ccc(-c5scnc5C)cc4)C(C)(C)C)cc2)=C3c2ccc(O)cc2)cc1 (stereo not given in full)"
  Selectivity ratio: 1.57
- molecule: "O=C(COc1cccc2c1C(=O)N(C1CCC(=O)NC1=O)C2=O)NCCCCCCCCOc1ccc(N(CC(F)(F)F)S(=O)(=O)C2CC3OC2C(c2ccc(O)cc2)=C3c2ccc(O)cc2)cc1 (stereo not given)"
  Selectivity ratio: 0.88
- molecule: "CCN(c1ccc(OCCCCCCCC(=O)N[C@H](C(=O)N2C[C@H](O)C[C@H]2C(=O)NCc2ccc(-c3scnc3C)cc2)C(C)(C)C)cc1)S(=O)(=O)C1CC2OC1C(c1ccc(O)cc1)=C2c1ccc(O)cc1 (stereo not given in full)"
  Selectivity ratio: 2.7

Q) # query: Selectivity ratio of entry CCN(c1ccc(OCCCCCC(=O)N[C@H](C(=O)N2C[C@H](O)C[C@H]2C(=O)NCc2ccc(-c3scnc3C)cc2)C(C)(C)C)cc1)S(=O)(=O)C1CC2OC1C(c1ccc(O)cc1)=C2c1ccc(O)cc1 (stereo not given in full)
A) 1.38

Q) # query: Selectivity ratio of entry COc1ccc(N(CC(F)(F)F)S(=O)(=O)C2CC3OC2C(c2ccc(OCCCCCC(=O)N[C@H](C(=O)N4C[C@H](O)C[C@H]4C(=O)N[C@@H](C)c4ccc(-c5scnc5C)cc4)C(C)(C)C)cc2)=C3c2ccc(O)cc2)cc1 (stereo not given in full)
A) 2.67

Q) # query: Selectivity ratio of entry O=C(COc1ccc(C2CCC(=O)NC2=O)cc1)NCCNC(=O)COc1ccc(N(CC(F)(F)F)S(=O)(=O)C2CC3OC2C(c2ccc(O)cc2)=C3c2ccc(O)cc2)cc1 (stereo not given)
A) 1.31

Q) # query: Selectivity ratio of entry CCN(c1ccc(OCCCCCC(=O)Nc2cccc3c2C(=O)N(C2CCC(=O)NC2=O)C3=O)cc1)S(=O)(=O)C1CC2OC1C(c1ccc(O)cc1)=C2c1ccc(O)cc1 (stereo not given)
A) 1.17
